Target: T1, cynomolgus monkey IL-33 expressed with a C-terminal hexahistidine tag (cynomolgus monkey)
T1 construct: also called MfIL-33-6His; Mf-IL-33-6His
T1 chain: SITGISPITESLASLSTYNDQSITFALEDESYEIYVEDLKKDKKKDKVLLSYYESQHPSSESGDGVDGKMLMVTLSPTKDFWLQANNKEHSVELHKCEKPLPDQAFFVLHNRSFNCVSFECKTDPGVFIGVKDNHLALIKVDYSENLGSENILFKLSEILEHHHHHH
Test: SPR 25C pH7.4, mAb captured
property-label: koff (s⁻¹)
Report the figure in s⁻¹ without appending any unit label.

Solved entries (count: 4):
>  <binder>
H4H9667P (antibody, human IgG4, V domains shown, Human IgG4 Fc (H4H)) VH: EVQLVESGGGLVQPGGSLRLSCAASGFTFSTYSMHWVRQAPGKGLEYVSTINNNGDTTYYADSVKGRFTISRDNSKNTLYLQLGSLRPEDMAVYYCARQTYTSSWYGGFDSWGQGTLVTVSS VL: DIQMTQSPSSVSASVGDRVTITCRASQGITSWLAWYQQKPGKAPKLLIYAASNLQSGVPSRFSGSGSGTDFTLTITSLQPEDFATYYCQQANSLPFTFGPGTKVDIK

>  <readout-unit>
s⁻¹

>  <numeric-readout>
0.000991

$$$$
>  <binder>
H4H9672P (antibody, human IgG4, V domains shown, Human IgG4 Fc (H4H)) VH: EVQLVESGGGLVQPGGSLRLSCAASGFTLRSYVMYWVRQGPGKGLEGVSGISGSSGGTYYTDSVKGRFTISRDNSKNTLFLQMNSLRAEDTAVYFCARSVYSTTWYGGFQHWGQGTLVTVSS VL: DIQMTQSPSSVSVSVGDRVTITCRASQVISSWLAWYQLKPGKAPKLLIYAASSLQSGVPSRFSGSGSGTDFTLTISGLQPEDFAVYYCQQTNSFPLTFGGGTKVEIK

>  <readout-unit>
s⁻¹

>  <numeric-readout>
0.0036

$$$$
>  <binder>
H4H9663P (antibody, human IgG4, V domains shown, Human IgG4 Fc (H4H)) VH: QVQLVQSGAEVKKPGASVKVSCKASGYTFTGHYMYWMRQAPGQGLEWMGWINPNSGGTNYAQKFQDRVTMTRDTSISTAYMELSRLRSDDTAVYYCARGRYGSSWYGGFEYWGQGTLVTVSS VL: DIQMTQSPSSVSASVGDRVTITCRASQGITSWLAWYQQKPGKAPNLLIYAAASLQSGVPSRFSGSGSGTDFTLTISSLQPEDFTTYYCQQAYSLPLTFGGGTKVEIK

>  <readout-unit>
s⁻¹

>  <numeric-readout>
0.000925

$$$$
>  <binder>
H4H9664P (antibody, human IgG4, V domains shown, Human IgG4 Fc (H4H)) VH: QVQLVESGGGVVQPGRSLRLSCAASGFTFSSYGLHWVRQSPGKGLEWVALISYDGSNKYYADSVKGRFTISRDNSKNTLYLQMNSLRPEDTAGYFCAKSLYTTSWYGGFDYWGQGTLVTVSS VL: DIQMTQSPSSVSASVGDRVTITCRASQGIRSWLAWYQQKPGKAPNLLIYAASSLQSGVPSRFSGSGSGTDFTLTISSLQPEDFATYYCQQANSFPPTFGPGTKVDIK

>  <readout-unit>
s⁻¹

>  <numeric-readout>
0.00165

$$$$

// switching to the query binder
Look up and state reported koff for H4H9666P (antibody, human IgG4, V domains shown, Human IgG4 Fc (H4H)) VH: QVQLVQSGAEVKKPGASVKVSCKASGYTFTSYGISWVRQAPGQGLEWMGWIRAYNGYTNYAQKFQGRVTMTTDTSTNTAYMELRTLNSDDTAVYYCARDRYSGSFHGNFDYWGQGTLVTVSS VL: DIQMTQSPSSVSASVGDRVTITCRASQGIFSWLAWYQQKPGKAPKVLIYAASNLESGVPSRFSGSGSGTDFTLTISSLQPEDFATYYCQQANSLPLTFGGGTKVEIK
0.00354
